System: PBMC
protocol: Inhibition of IL17 production in human PBMC cells after 48 hrs by sandwich ELISA method
Type: functional, cell-based
value_type: pEC50
Give bare numbers, as −log10 of the molar value.

CC(=O)N1CCN(c2ccc(CN(C3CCC3)S(=O)(=O)Cc3ccccc3F)c(F)c2)CC1 = 6.49

Measured pEC50 (PBMC), entry `CC(=O)N1CCN(c2ccc(CN(C3CCC3)S(=O)(=O)Cc3ccccc3)c(F)c2)CC1` : 6.46

###

target_desc: Nuclear receptor ROR-beta (Homo sapiens)
Sequence (Q92753 whole entry): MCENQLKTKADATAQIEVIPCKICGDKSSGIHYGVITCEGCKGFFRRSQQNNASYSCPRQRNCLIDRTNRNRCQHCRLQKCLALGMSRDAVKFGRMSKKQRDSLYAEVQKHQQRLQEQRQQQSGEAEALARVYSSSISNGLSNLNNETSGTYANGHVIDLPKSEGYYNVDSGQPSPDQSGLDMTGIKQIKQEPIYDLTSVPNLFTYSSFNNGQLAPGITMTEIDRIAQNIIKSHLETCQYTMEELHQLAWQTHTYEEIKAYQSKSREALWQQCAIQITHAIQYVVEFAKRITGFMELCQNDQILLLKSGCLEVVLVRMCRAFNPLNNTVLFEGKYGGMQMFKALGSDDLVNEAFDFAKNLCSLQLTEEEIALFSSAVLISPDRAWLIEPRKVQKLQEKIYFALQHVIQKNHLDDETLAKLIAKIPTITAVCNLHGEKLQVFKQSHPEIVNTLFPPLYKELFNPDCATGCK
protocol: Inverse agonist activity at GAL4-fused human RORb expressed in HEK293T cells assessed as suppression of basal transcriptional activity after 20 hrs by dual-glo luciferase reporter gene assay
Format: cell-based, HEK-293T
value_type: EC50 (nM)
Give bare numbers, in nM.

Quick note, EC50 for `CC(=O)N1CCN(c2ccc(CN(C3CCC3)S(=O)(=O)Cc3ccccc3F)c(F)c2)CC1` landed at 2700

###

target_desc: Nuclear receptor ROR-gamma (Homo sapiens, UniProt P51449)
Sequence (P51449 whole entry): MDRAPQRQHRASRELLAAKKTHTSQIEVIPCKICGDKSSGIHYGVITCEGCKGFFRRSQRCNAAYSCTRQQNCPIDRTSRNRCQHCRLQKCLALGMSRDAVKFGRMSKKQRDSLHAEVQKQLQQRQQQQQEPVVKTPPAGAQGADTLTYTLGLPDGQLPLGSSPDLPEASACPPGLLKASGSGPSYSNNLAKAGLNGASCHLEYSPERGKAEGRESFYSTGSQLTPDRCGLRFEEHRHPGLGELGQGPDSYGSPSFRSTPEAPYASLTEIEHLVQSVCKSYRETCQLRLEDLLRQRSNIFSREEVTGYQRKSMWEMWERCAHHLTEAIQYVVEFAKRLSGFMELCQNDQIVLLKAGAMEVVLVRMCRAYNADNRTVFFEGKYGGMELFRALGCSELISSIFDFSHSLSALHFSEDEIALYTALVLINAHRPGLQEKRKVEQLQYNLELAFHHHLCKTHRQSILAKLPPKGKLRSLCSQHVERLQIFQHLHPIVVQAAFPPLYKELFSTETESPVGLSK
Format: functional
Would you kindly list EC50 for each of these molecules?
I'd appreciate it if you included the unit after the number.

Examples with answers:
CC(=O)N1CCN(c2ccc(CN(C3CCC3)S(=O)(=O)c3cccc(F)c3)c(F)c2)CC1 = 41 nM
CC(=O)N1CCN(c2ccc(CN(C3CCC3)S(=O)(=O)c3cc(Cl)cc(Cl)c3)c(F)c2)CC1 = 6 nM
CC(=O)N1CCN(c2ccc(CN(C3CCC3)S(=O)(=O)c3cc(F)cc(F)c3)c(F)c2)CC1 = 14 nM
CC(=O)N1CCN(c2ccc(CN(C3CCC3)S(=O)(=O)c3cccc(Cl)c3)c(F)c2)CC1 = 50 nM

Would you mind listing EC50 for each of the following molecules?
1. CC(=O)N1CCN(c2ccc(CN(C3CCC3)S(=O)(=O)c3ccccc3Cl)c(F)c2)CC1
2. CC(=O)N1CCN(c2ccc(CN(C3CCC3)S(=O)(=O)c3ccccc3)c(F)c2)CC1
3. CC(=O)N1CCN(c2ccc(CN(C3CCC3)S(=O)(=O)c3ccccc3F)c(F)c2)CC1
4. COc1cccc(S(=O)(=O)N(Cc2ccc(N3CCN(C(C)=O)CC3)cc2F)C2CCC2)c1

output:
1: 47 nM; 2: 69 nM; 3: 63 nM; 4: 26 nM
